assay: fluorescent artefacts in myeloid progenitor cells – cell-based, flow cytometry, GFP/APC, Cherry Pick01, artefact control for AML myeloid differentiation project, confirmation (AID 651707); conditions: ER-HoxA9 myeloid progenitors, no estrogen, GFP autofluorescence flow cytometry, active compounds read high; vehicle wells 0%, positive control 100%;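 note: range taken on the double positive population between DMSO and positive control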
Out of some 2,300 compounds screened, about 170 (7.4%) were called active. These entries were drawn from the full list.
The entries below come with measured fluorescence response values attached.
measured.metric: fluorescence response (%)

>>> numeric_readout("O[C@H]1C[C@H](c2ccc(Cl)cc2)N(Cc2cccs2)C[C@@H]1n1cc(C2CC2)nn1")
0.5
>>> numeric_readout("O=C(CN1CCN(C2CCCCC2)CC1)Nc1ccccc1N1CCCCC1")
0
>>> numeric_readout("CNc1nc(=O)n(C2CCCO2)cc1C (stereo not drawn)")
0
>>> numeric_readout("CCCC(=O)Nc1c(O)c2ccccc2[nH]c1=O")
0
>>> numeric_readout("Cc1ccc(OS(=O)Nc2cccc3nccnc23)cc1 (stereo not drawn)")
0
>>> numeric_readout("Cc1ccc(C)c(S(=O)(=O)N2CCN(c3ncnc4sccc34)CC2)c1")
0
>>> numeric_readout("COc1ccc(-c2nnc(SCC(=O)c3cccs3)o2)c(OC)c1")
3.4
>>> numeric_readout("C=CCNc1nnc(SCC(=O)N2CCCCC2)c2ccccc12")
0.3
>>> numeric_readout("CN(C(=O)CSc1nnc(C2CC2)n1C)C1CCCc2ccccc21 (stereo not drawn)")
0
>>> numeric_readout("O=C(CN1C(=O)NC(Cc2c[nH]c3ccccc23)C1=O)Nc1ccccc1C(F)(F)F (stereo not drawn)")
0
>>> numeric_readout("Cc1cccc(C)c1NC(=O)CCS(=O)(=O)c1cccc2nsnc12")
0
>>> numeric_readout("COc1ccc(C(C(=O)NCc2ccccc2)n2c(=O)c(-c3ccccc3)nc3ccccc32)cc1 (stereo not drawn)")
0.7
>>> numeric_readout("CC(=O)Nc1ccc(S(=O)(=O)Nc2ccc(N3CCCCC3)cc2)cc1")
10.5
>>> numeric_readout("Nc1nc(Nc2ccccc2F)nc(NC2CCCCC2)c1[N+](=O)[O-]")
0
>>> numeric_readout("COC(=O)CN(c1cccc(C(C)=O)c1)S(C)(=O)=O")
0
>>> numeric_readout("N#C/C(=C/c1ccc(N2CCCCC2)o1)C(=O)NCCc1c[nH]c2ccccc12")
64.7
>>> numeric_readout("CCOc1ccc(NC(=O)CSc2nc3c(c(=O)n2-c2ccccc2OC)SCC3)cc1")
0.5
>>> numeric_readout("CN1CCC(CN)(N2CCN(c3ccccc3)CC2)CC1")
0.6
>>> numeric_readout("COc1cccc(NC(=S)NCc2ccccn2)c1")
0.3
>>> numeric_readout("N#CC1=C(N)Oc2c(sc3ccccc23)C1c1ccco1 (stereo not drawn)")
0
>>> numeric_readout("CCOC(=O)CC(=O)CSc1nc(-c2ccccc2)cc(-c2ccc(Cl)cc2)c1C#N")
0
>>> numeric_readout("Cc1cc(C)n(C(=O)c2ccc(C)c(S(=O)(=O)N3CCOCC3)c2)n1")
2.3
>>> numeric_readout("CC(=O)Nc1ccc(S(=O)(=O)Nc2ccc(N3CCOCC3)c(F)c2)cc1")
0.8

---

assay: fluorescent artefacts in myeloid progenitor cells – cell-based, flow cytometry, GFP/APC, Cherry Pick01, artefact control for AML myeloid differentiation project, confirmation (AID 651707); conditions: ER-HoxA9 myeloid progenitors, no estrogen, GFP autofluorescence flow cytometry, active compounds read high; vehicle wells 0%, positive control 100%;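 note: range taken on the double positive population between DMSO and positive control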
The whole screen tested about 2,300 compounds, of which about 170 (7.4%) were called active. A selection follows.
We begin with a simple list: items and their reported fluorescence response.
measured.metric: fluorescence response (%)

>>> numeric_readout("Cc1cc(C)c(-c2csc(NC(=O)CCCc3nc4ccccc4c(=O)[nH]3)n2)c(C)c1")
2.2
>>> numeric_readout("CCN(CC)c1ccc(/C=N/NC(=O)CNC(=O)c2cccs2)cc1")
0
>>> numeric_readout("C/C(=C\\c1ccccc1)C1NC(=O)c2c(sc3c2CCCC3)N1 (configuration not stated)")
0
>>> numeric_readout("CC(C)C(=O)N1CCN(c2nc(-c3ccccc3)c3c(c2C#N)CC(C)(C)OC3)CC1")
0
>>> numeric_readout("CN1OC(COC(=O)c2ccc(Cl)cc2)CC1c1ccccc1 (configuration not stated)")
0.3
>>> numeric_readout("COc1ccc2nc(N3CCN(C(=O)c4ccc([N+](=O)[O-])o4)CC3)sc2c1")
0
>>> numeric_readout("COc1cc(/C=C(\\C#N)c2nc3ccccc3[nH]2)ccc1O")
36.7
>>> numeric_readout("CC(C)(C)OC(=O)CNC(=O)c1[nH]cnc1C(=O)N[C@@H](Cc1ccccc1)C(=O)OCc1ccccc1")
0
>>> numeric_readout("CC(C)CNC(=O)COC(=O)/C=C/c1ccccc1[N+](=O)[O-]")
0
>>> numeric_readout("Cc1ccc(-n2nc3cc(C)c(NC(=O)c4cccnc4)cc3n2)cc1")
4.7
>>> numeric_readout("Clc1ccc(-c2nnc(SCc3nc4ccccc4s3)o2)cc1")
0
>>> numeric_readout("O=C(CCCN1C(=O)CCC1=O)Nc1ccc(Cl)c(C(F)(F)F)c1")
0
>>> numeric_readout("Cc1nn(-c2cc(Cl)ccc2N)c(=O)c2ccccc12")
0
>>> numeric_readout("O=c1oc2ccccc2cc1-c1csc(Nc2ccc(O)cc2)n1")
55.3
>>> numeric_readout("CCCCSc1nc2c(c(=O)n1CC)SC(C)C2 (configuration not stated)")
0
>>> numeric_readout("CCOC(=O)c1c(-c2cccc(C)c2)csc1NC(=O)c1c(-c2ccccc2)noc1C")
0
>>> numeric_readout("CCN(CC)CC(=O)c1c[nH]c2ccc(OC)cc12")
0.3
>>> numeric_readout("CC#CC[N+](C)(C)CCCCCC")
0
>>> numeric_readout("COc1ccc(-c2ccc(OC(=O)NC3CCS(=O)(=O)C3)cc2)cc1 (configuration not stated)")
0.7
>>> numeric_readout("Cc1c(C(=O)OCC(=O)N(CCC#N)c2ccccc2)oc2c1ccc1ccccc12")
0
>>> numeric_readout("CC(C)CC(COCc1ccc(Cl)cc1)N1CCN(C(=O)c2ccc(C(F)(F)F)cc2)CCC1=O (configuration not stated)")
0
>>> numeric_readout("COc1ccccc1NC(=O)c1cc(Cl)nnc1Cl")
0.6
